- target.desc: EGFR del19 (Homo sapiens (Human), UniProt P00533, DEL746-750)
- Sequence (P00533 other isoform, or with tags, fused parts or gaps del 1-668/del 746-750 limits assumed): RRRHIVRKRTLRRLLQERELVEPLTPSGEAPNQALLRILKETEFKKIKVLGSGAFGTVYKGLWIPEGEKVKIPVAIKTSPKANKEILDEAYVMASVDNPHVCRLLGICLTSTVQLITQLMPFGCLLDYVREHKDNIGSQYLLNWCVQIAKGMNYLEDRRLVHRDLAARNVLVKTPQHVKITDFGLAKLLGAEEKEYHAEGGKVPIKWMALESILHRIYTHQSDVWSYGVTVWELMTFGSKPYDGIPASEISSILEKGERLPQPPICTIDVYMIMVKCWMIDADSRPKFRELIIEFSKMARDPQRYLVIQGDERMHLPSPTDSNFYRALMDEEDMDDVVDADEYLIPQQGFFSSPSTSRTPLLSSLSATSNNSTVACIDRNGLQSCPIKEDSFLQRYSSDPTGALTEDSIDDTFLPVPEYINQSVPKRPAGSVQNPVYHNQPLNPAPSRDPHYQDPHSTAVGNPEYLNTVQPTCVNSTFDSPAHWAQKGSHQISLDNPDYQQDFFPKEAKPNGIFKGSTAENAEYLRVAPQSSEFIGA
- experiment.summary: HTRF inhibitory activity against EGFR mutant enzyme (EGFR del19)
- condition.parameters: recombinant enzyme, 37° C. for 2 hours
# Lookup of reported IC50 keyed by entry
Numeric only. Scale: nM

Would you mind telling me what IC50 value was observed for C=CC(=O)Nc1cc(Nc2ncc(Cl)c(Nc3ccc(C)cc3N(C)C(C)=O)n2)c(OC)cc1N(C)CCN(C)C ?
4

Would you mind telling me what IC50 value was observed for C=CC(=O)Nc1cc(Nc2ncc(F)c(Nc3cccc4c3N(C(C)=O)CC4)n2)c(OC)cc1N(C)CCN(C)C ?
1

Would you mind telling me what IC50 value was observed for C=CC(=O)Nc1cc(Nc2ncc(Cl)c(Nc3cccc(C)c3NC(C)=O)n2)c(OC)cc1N(C)CCN(C)C ?
2
